# test.details: AUC (infinity) in BALB-C mouse at 8 mg/kg, iv by LC-MS/MS analysis
# Format: ADME, organism-based
# Parameters: dose 8 mg/kg, time infinity, route intravenous
# experimental.conditions: in vivo
measurement.kind: AUC(0-inf) (ng·h/mL)
Respond with the bare value in ng·h/mL.

Input: // lookup AUC(0-inf) for CS(=O)(=O)N1CCN(Cc2cn3cc(-c4cnc(N)nc4)nc(N4CCOCC4)c3n2)CC1
Output: 14200

* * *

# test.details: Half-life in BALB-C mouse at 10 mg/kg, po by LC-MS/MS analysis
# Format: ADME, organism-based
# experimental.conditions: in vivo
measurement.kind: half-life (h)
Respond with the bare value in h.

1) CS(=O)(=O)N1CCN(Cc2nc3c(N4CCOCC4)nc(-c4cnc(N)nc4)cn3n2)CC1; 5.28

Input: // lookup half-life for CS(=O)(=O)N1CCN(Cc2cc3c(N4CCOCC4)nc(-c4cnc(N)nc4)c(Cl)n3n2)CC1
Output: 3.22

Taken from ChEMBL document CHEMBL4177600.
